All figures here come from patent US11254686B1.

Target: UniProt:P30542
Sequence (P30542 whole entry): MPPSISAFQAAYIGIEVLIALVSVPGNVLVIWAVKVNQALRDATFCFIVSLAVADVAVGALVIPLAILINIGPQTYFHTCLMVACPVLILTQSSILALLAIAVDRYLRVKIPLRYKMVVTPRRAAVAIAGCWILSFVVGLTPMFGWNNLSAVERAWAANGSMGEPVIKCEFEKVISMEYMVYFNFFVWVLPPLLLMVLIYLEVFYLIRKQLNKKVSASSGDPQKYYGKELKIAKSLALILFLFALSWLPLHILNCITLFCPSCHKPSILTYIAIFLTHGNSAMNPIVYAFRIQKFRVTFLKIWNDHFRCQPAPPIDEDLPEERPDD
Test: Adenosine receptor activity assay (Table 1), A1 cAMP
Assay type: biochemical
pIC50: −log10 of the molar value.
Exercise: for every item that follows, state its recorded pIC50.

Give pIC50 only, for C[C@H](Nc1nc(C(=O)N2CC(CC(=O)NC(C)(C)C)C2)c2sccc2n1)c1cncc(F)c1 [Example Z571] , using UniProt:P30542 data.
< 6.30

Give pIC50 only, for COC1(C)CN(C(=O)c2nc(N[C@@H](C)c3ccccn3)nc3cc(C)sc23)C1 [Example Z483] , using UniProt:P30542 data.
< 6.30

Give pIC50 only, for Cc1cc2nc(N[C@@H](C)c3ccccn3)nc(C(=O)N3CC(CN)C3)c2s1 [Example Z479] , using UniProt:P30542 data.
< 6.30

Give pIC50 only, for Cc1cc2nc(N[C@@H](C)c3cncc(F)c3)nc(C(=O)N3CC(N(C)C)C3)c2s1 [Example Z481] , using UniProt:P30542 data.
< 6.30

Give pIC50 only, for Cc1cc2nc(N[C@@H](C)c3cncc(F)c3)nc(C(=O)N3CC(NC(=O)C4CCC4)C3)c2s1 [Example Z542] , using UniProt:P30542 data.
< 6.30

###

Target: adenosine A3 receptor (Homo sapiens (Human))
Sequence (P0DMS8 whole entry): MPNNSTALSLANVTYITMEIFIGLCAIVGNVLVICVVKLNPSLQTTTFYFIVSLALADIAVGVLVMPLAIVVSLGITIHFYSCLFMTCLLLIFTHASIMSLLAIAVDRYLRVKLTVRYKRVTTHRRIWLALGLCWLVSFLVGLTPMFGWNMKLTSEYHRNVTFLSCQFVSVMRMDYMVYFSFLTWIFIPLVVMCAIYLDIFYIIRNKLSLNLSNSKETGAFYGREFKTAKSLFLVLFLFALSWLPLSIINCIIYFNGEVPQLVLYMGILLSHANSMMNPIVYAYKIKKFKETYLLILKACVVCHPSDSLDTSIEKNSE
Experiment: Adenosine receptor activity assay (Table 1), A3 cAMP
Assay type: cell-based
Exercise: for every item that follows, state its recorded IC50.

Respond only with IC50 recorded for C[C@H](Nc1nc(C(=O)N2CC[C@H](CO)C2)c2sccc2n1)c1cccnc1
> 500 nM

Respond only with IC50 recorded for C[C@H](Nc1nc(C(=O)N[C@H]2CC[C@@H](O)C2)c2sccc2n1)c1cncc(F)c1
50 to 100 nM

Respond only with IC50 recorded for C[C@H](Nc1nc(C(=O)N2CC[C@H](F)C2)c2sccc2n1)c1cncc(F)c1
> 500 nM

Respond only with IC50 recorded for Cc1cc2nc(N[C@@H](C)c3cncc(F)c3)nc(C(=O)N3CC[C@@H](CO)C3)c2s1
> 500 nM

Respond only with IC50 recorded for CNc1cc2nc(N[C@@H](C)c3cncc(F)c3)nc(C(=O)N3CCC3)c2s1
50 to 100 nM

Respond only with IC50 recorded for Cc1cc2nc(N[C@@H](C)c3ccccn3)nc(C(=O)N3CCC3)c2s1
50 to 100 nM

Respond only with IC50 recorded for COC1CN(C(=O)c2nc(N[C@@H](C)c3cncc(Cl)c3)nc3ccsc23)C1
> 500 nM

Respond only with IC50 recorded for C[C@H](Nc1nc(C(=O)NC[C@@H](C)O)c2sc(C(F)(F)F)cc2n1)c1cccnc1
50 to 100 nM

###

Molecular target: adenosine A2B receptor (Homo sapiens (Human))
Sequence (P29275 whole entry): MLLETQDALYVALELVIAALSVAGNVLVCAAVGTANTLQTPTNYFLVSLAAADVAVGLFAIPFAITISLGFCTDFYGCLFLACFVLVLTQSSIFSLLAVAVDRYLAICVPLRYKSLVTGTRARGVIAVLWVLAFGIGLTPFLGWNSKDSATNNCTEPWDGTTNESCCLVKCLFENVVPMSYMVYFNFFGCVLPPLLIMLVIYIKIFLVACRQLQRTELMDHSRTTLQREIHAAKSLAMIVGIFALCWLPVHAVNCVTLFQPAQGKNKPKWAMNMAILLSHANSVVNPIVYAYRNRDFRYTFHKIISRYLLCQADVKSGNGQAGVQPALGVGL
Assay: Adenosine receptor activity assay (Table 1), A2B activity
Type: biochemical
Details: A2A activity to the A2B activity; A2A/A2B
Mark Condition met for Ratio under 2, Condition not met if at or over.

Take the compound Cc1cc2nc(N[C@@H](C)c3cncc(F)c3)nc(C(=O)N3CC(NC(=O)C(C)C)C3)c2s1 [Example Z588] and say whether its Ratio is less than 2.
Condition met

Take the compound C[C@H](Nc1nc(C(=O)N2CC(CNC(=O)OC(C)(C)C)C2)c2sccc2n1)c1cncc(F)c1 [Example Z404] and say whether its Ratio is less than 2.
Condition not met

Take the compound C[C@H](Nc1nc(C(=O)N2CC(NC(=O)C3(C)CC3)C2)c2sccc2n1)c1cncc(Cl)c1 [Example Z641] and say whether its Ratio is less than 2.
Condition met

Take the compound Cc1cc2nc(N[C@@H](C)c3cncc(F)c3)nc(C(=O)N3CC(NC(=O)OC(C)C)C3)c2s1 [Example Z511] and say whether its Ratio is less than 2.
Condition not met

Take the compound C[C@H](Nc1nc(C(=O)N2CC(NC(=O)C3CCCCC3)C2)c2sccc2n1)c1cncc(F)c1 [Example Z610] and say whether its Ratio is less than 2.
Condition met

Take the compound C[C@H](Nc1nc(C(=O)N2CC(NC(=O)CCC3CCOCC3)C2)c2sccc2n1)c1cncc(F)c1 [Example Z612] and say whether its Ratio is less than 2.
Condition met

Take the compound C[C@H](Nc1nc(C(=O)N2CC(NC(=O)C34CCC(CC3)CC4)C2)c2sccc2n1)c1cncc(F)c1 [Example Z637] and say whether its Ratio is less than 2.
Condition met

###

Molecular target: adenosine A2B receptor (Homo sapiens (Human))
Assay: Adenosine receptor activity assay (Table 1), A2B activity
Type: biochemical
Details: A2A activity to the A2B activity; A2A/A2B
Exercise: for every item that follows, state its recorded Ratio.
Just the number, please.

Respond only with Ratio recorded for Cc1cc2nc(N[C@@H](C)c3cncc(F)c3)nc(C(=O)N3CC(CO)C3)c2s1 [Example Z494]
146.92

Respond only with Ratio recorded for CN[C@H]1CCN(C(=O)c2nc(N[C@@H](C)c3cncc(F)c3)nc3cc(C)sc23)C1 [Example Z561]
140.19

Respond only with Ratio recorded for C[C@H](Nc1nc(C(=O)N2CC(CNS(C)(=O)=O)C2)c2sccc2n1)c1cncc(F)c1 [Example Z531]
19.43

Respond only with Ratio recorded for Cc1cc2nc(N[C@@H](C)c3cncc(F)c3)nc(C(=O)N3CC(NC(=O)OC(C)(C)C)C3)c2s1 [Example Z429]
4.15

Respond only with Ratio recorded for Cc1cc2nc(N[C@@H](C)c3cncc(F)c3)nc(C(=O)N3CC(CS(C)(=O)=O)C3)c2s1 [Example Z575]
75.64

Respond only with Ratio recorded for C[C@H](Nc1nc(C(=O)N2CC(C(N)=O)C2)c2sccc2n1)c1cncc(F)c1 [Example Z563]
16.87

Respond only with Ratio recorded for Cc1cc2nc(N[C@@H](C)c3cncc(F)c3)nc(C(=O)NCC[C@H]3CCNC3)c2s1 [Example Z463]
159.87

Respond only with Ratio recorded for C[C@H](Nc1nc(C(=O)N2CC(NC(=O)C3(C#N)CC3)C2)c2sccc2n1)c1cncc(F)c1 [Example Z636]
3.72

Respond only with Ratio recorded for COCC1CN(C(=O)c2nc(N[C@@H](C)c3ccccn3)nc3cc(C)sc23)C1 [Example Z514]
5.47

Respond only with Ratio recorded for C[C@H](Nc1nc(C(=O)N2CC(NC(=O)OC3CCCC3)C2)c2sccc2n1)c1cncc(F)c1 [Example Z618]
1.31

Respond only with Ratio recorded for C[C@H](Nc1nc(C(=O)N2CC(NC(=O)C34CC5CC(CC(C5)C3)C4)C2)c2sccc2n1)c1cncc(F)c1 [Example Z631]
0.09

Respond only with Ratio recorded for CC(C)C(=O)N1CCN(C(=O)c2nc(N[C@@H](C)c3cncc(F)c3)nc3ccsc23)C1 [Example Z564]
18.15

Respond only with Ratio recorded for CCO[C@@H]1CCN(C(=O)c2nc(N[C@@H](C)c3ccccn3)nc3ccsc23)C1 [Example Z438]
2.65

Respond only with Ratio recorded for C[C@H](Nc1nc(C(=O)N2CC(NC(=O)c3ccc(Cl)cc3)C2)c2sccc2n1)c1cncc(F)c1 [Example Z617]
3.67

Respond only with Ratio recorded for C[C@H](Nc1nc(C(=O)N2CC(CN(C)C(=O)C(C)(C)C)C2)c2sccc2n1)c1cncc(F)c1 [Example Z551]
1.68

###

Exercise: for every item that follows, state its recorded IC50.
Molecular target: adenosine A3 receptor (Homo sapiens (Human))
Test: A3 cAMP IC50 assay (Table 1)
Format: biochemical

Respond only with IC50 recorded for C[C@H](Nc1nc(C(=O)N2CC[C@@H](O)C2)c2sccc2n1)c1cccnc1 [Example Z29]
> 500 nM

Respond only with IC50 recorded for CO[C@@H]1CCN(C(=O)c2nc(N[C@@H](C)c3cccnc3)nc3ccsc23)C1 [Example Z19]
50 to 100 nM

Respond only with IC50 recorded for COC1CN(C(=O)c2nc(N[C@@H](C)c3ccccn3)nc3ccsc23)C1 [Example Z108]
> 500 nM

Respond only with IC50 recorded for O=C(NC1CC(O)C1)c1nc(NCc2cncc(F)c2)nc2ccsc12 (centres unmarked) [Example Z184]
> 500 nM

Respond only with IC50 recorded for C[C@H](Nc1nc(C(=O)N2CC[C@@H](O)C2)c2sccc2n1)c1cncc(F)c1 [Example Z166]
> 500 nM

Respond only with IC50 recorded for O=C(c1nc(NCc2cncc(F)c2)nc2ccsc12)N1CC[C@H](F)C1 [Example Z99]
> 500 nM

Respond only with IC50 recorded for C[C@H](O)CNC(=O)c1nc(N[C@@H](C)c2ccccn2)nc2ccsc12 [Example Z163]
> 500 nM

Respond only with IC50 recorded for C[C@H](Nc1nc(C(=O)NC2CCCC2)c2sccc2n1)c1ccccn1 [Example Z180]
100 to 500 nM

###

Molecular target: adenosine A2B receptor (Homo sapiens (Human))
Assay: Adenosine receptor activity assay (Table 1), A2B activity
Assay type: biochemical
Conditions: A2A activity to the A2B activity; A2A/A2B
Mark 1 for Ratio under 7, -1 if at or over.

Take the compound C[C@H](Nc1nc(C(=O)NCCNC(=O)C(C)(C)C)c2sccc2n1)c1cncc(F)c1 and say whether its Ratio is less than 7.
1

Take the compound Cc1cc2nc(N[C@@H](C)c3cncc(F)c3)nc(C(=O)N3CC(NC(=O)[C@@H]4CCOC4)C3)c2s1 and say whether its Ratio is less than 7.
1

Take the compound C[C@H](Nc1nc(C(=O)N[C@@H]2CC[C@H](O)C2)c2sccc2n1)c1cncc(F)c1 and say whether its Ratio is less than 7.
-1

Take the compound C[C@H](Nc1nc(C(=O)N2CC(NC(=O)[C@H]3CC[C@H](C)CC3)C2)c2sccc2n1)c1cncc(F)c1 and say whether its Ratio is less than 7.
1

Take the compound COCCC(=O)N1CCN(C(=O)c2nc(N[C@@H](C)c3cncc(F)c3)nc3ccsc23)C1 and say whether its Ratio is less than 7.
-1

Take the compound Cc1cc2nc(N[C@@H](C)c3cncc(F)c3)nc(C(=O)NCC3CCNCC3)c2s1 and say whether its Ratio is less than 7.
-1
